B1: Zinc finger homeobox protein 4, residues 2183 to 2238; numbered along this chain, Q86UP3 (parent)
chain: SSRTRFTDYQLRVLQDFFDTNAYPKDDEIEQLSTVLNLPTRVIVVWFQNARQKARK

Variants of: B1
protocol_description: abundance fitness (aPCA) (normalised: wild type 0, dead -1); higher = more abundant; growth selection in yeast, the domain comes from the species named
experimental_setup: Homo sapiens

{"columns": ["residues", "abundance fitness"],
 "data": [
  ["SSRTRFTDYQLRVLQDFFDTNAYPKDDEIEQVSTVLNLPTRVIVVWFQNARQKARK [L32V]", -0.235],
  ["SSRTRFTDYQLRVLNDFFDTNAYPKDDEIEQLSTVLNLPTRVIVVWFQNARQKARK [Q15N]", -0.158],
  ["SSRTRFTDYQLRVLQDFFDTNAYPKDDEIEQLETVLNLPTRVIVVWFQNARQKARK [S33E]", -0.209],
  ["SSRTRFTDYQLRVLQDFFDTNAYPKDDEIEQLSTMLNLPTRVIVVWFQNARQKARK [V35M]", 0.058],
  ["SSRTRFTDYQLRVLQDFFDTNAYPKDDEIEQLSTVLALPTRVIVVWFQNARQKARK [N37A]", -0.02],
  ["SSRTRFTDYQLRVPQDFFDTNAYPKDDEIEQLSTVLNLPTRVIVVWFQNARQKARK [L14P]", -0.931],
  ["SSRTRCTDYQLRVLQDFFDTNAYPKDDEIEQLSTVLNLPTRVIVVWFQNARQKARK [F6C]", -0.094],
  ["SSRTRFTDYQLRVLQDFFDTNAYPKDDEIEQLSTGLNLPTRVIVVWFQNARQKARK [V35G]", 0.043],
  ["SSRTRFTDYQLRVLQDFFDTNAYPKDDFIEQLSTVLNLPTRVIVVWFQNARQKARK [E28F]", -0.448],
  ["SSRTRFTDYQLRVLQDFFDTNAYPKDDEIEQLSLVLNLPTRVIVVWFQNARQKARK [T34L]", -0.004],
  ["SSRTRFTDYQLRVLQDFFKTNAYPKDDEIEQLSTVLNLPTRVIVVWFQNARQKARK [D19K]", -0.074],
  ["SSRTRFTDYQLRVLQDFFDTNAYPKDDEIEQLSTDLNLPTRVIVVWFQNARQKARK [V35D]", -0.222],
  ["SSRTRFTDYQLCVLQDFFDTNAYPKDDEIEQLSTVLNLPTRVIVVWFQNARQKARK [R12C]", -0.732],
  ["SSRTRFTDYQLIVLQDFFDTNAYPKDDEIEQLSTVLNLPTRVIVVWFQNARQKARK [R12I]", -0.623],
  ["SSRTRFTDYQLRVLQDFFDTNAYPWDDEIEQLSTVLNLPTRVIVVWFQNARQKARK [K25W]", -0.387],
  ["SSRTRFTDYQLRVLQDFFDTNAGPKDDEIEQLSTVLNLPTRVIVVWFQNARQKARK [Y23G]", -0.169],
  ["SSRTRFTDYQLRWLQDFFDTNAYPKDDEIEQLSTVLNLPTRVIVVWFQNARQKARK [V13W]", -0.377],
  ["SSRTRFTDYQLRVLQDFFDTNAYPKDDEIEQRSTVLNLPTRVIVVWFQNARQKARK [L32R]", -0.861],
  ["SSNTRFTDYQLRVLQDFFDTNAYPKDDEIEQLSTVLNLPTRVIVVWFQNARQKARK [R3N]", 0.364],
  ["SSRNRFTDYQLRVLQDFFDTNAYPKDDEIEQLSTVLNLPTRVIVVWFQNARQKARK [T4N]", 0.047],
  ["SSRTRFTDYQLRVLQDFFDTNAYPKDKEIEQLSTVLNLPTRVIVVWFQNARQKARK [D27K]", -0.029],
  ["SSRTRFTDYQLRVLQDFFDTNAYPKDDEIEQLSDVLNLPTRVIVVWFQNARQKARK [T34D]", -0.162],
  ["STRTRFTDYQLRVLQDFFDTNAYPKDDEIEQLSTVLNLPTRVIVVWFQNARQKARK [S2T]", 0.151],
  ["SSRTRFTSYQLRVLQDFFDTNAYPKDDEIEQLSTVLNLPTRVIVVWFQNARQKARK [D8S]", -0.315],
  ["SSRTRFTDYQLRVLQDFFDTNAYPKDDEIEQLSTVLKLPTRVIVVWFQNARQKARK [N37K]", 0.042],
  ["SSRTRFTDYQLRVLQDFFDTNIYPKDDEIEQLSTVLNLPTRVIVVWFQNARQKARK [A22I]", -0.065],
  ["SSRTRFTDYQLRVLQDFFDTNAYPKDDEIEQLSTKLNLPTRVIVVWFQNARQKARK [V35K]", 0.157],
  ["SSRTRFTDYQLRVCQDFFDTNAYPKDDEIEQLSTVLNLPTRVIVVWFQNARQKARK [L14C]", -0.181],
  ["SSRTRFTDYQLRVLQDFFDTNAYPKDDEIRQLSTVLNLPTRVIVVWFQNARQKARK [E30R]", 0.031],
  ["SSRTRFTDYQLRVLQDFFDTNAYPKDDEIEQESTVLNLPTRVIVVWFQNARQKARK [L32E]", -0.723],
  ["SSRTRFTDYQLRQLQDFFDTNAYPKDDEIEQLSTVLNLPTRVIVVWFQNARQKARK [V13Q]", 0.057],
  ["SSRTRFTDYQLRVLQDHFDTNAYPKDDEIEQLSTVLNLPTRVIVVWFQNARQKARK [F17H]", 0.079],
  ["SYRTRFTDYQLRVLQDFFDTNAYPKDDEIEQLSTVLNLPTRVIVVWFQNARQKARK [S2Y]", -0.07],
  ["SSRTRFTDYQLRVLQDFFDNNAYPKDDEIEQLSTVLNLPTRVIVVWFQNARQKARK [T20N]", -0.058],
  ["SSRTRFDDYQLRVLQDFFDTNAYPKDDEIEQLSTVLNLPTRVIVVWFQNARQKARK [T7D]", -0.081],
  ["SSRTRFTDYQLRVLQDFFDTNAYPPDDEIEQLSTVLNLPTRVIVVWFQNARQKARK [K25P]", -0.244],
  ["SSRTRFTDYQLRVLQDFFDTNAYPKDDEIEQLSTVWNLPTRVIVVWFQNARQKARK [L36W]", -0.842],
  ["SSRTRFTDYQLRVLQDFFDTNAYPKDDEIEQLSMVLNLPTRVIVVWFQNARQKARK [T34M]", -0.145],
  ["SSETRFTDYQLRVLQDFFDTNAYPKDDEIEQLSTVLNLPTRVIVVWFQNARQKARK [R3E]", 0.201],
  ["SVRTRFTDYQLRVLQDFFDTNAYPKDDEIEQLSTVLNLPTRVIVVWFQNARQKARK [S2V]", -0.043],
  ["SSRTRFTDYQLAVLQDFFDTNAYPKDDEIEQLSTVLNLPTRVIVVWFQNARQKARK [R12A]", -0.263],
  ["SSRTRFTDYQLRVTQDFFDTNAYPKDDEIEQLSTVLNLPTRVIVVWFQNARQKARK [L14T]", -0.93],
  ["SSRTRFTDYQLRVLRDFFDTNAYPKDDEIEQLSTVLNLPTRVIVVWFQNARQKARK [Q15R]", -0.107],
  ["SSRTRFTDYQLRVLQDFFDTNAYPKDDHIEQLSTVLNLPTRVIVVWFQNARQKARK [E28H]", -0.188],
  ["SSRTRFTNYQLRVLQDFFDTNAYPKDDEIEQLSTVLNLPTRVIVVWFQNARQKARK [D8N]", -0.351],
  ["SSRTRFTDYQLYVLQDFFDTNAYPKDDEIEQLSTVLNLPTRVIVVWFQNARQKARK [R12Y]", -0.702]
]}
